Test System: Nuclear receptor ROR-gamma (Homo sapiens) (UniProt P51449)
Experiment Summary: qHTS assay to identify small molecule antagonists of the retinoid-related orphan receptor gamma (ROR-gamma) signaling pathway (AID 1159521; further: nearly all actives have a fitted effect of over 50% in size; further: potency means the concentration at half of the fitted maximal effect)
Assay Conditions: Tet-on RORgamma CHO cells, RORE-luciferase, 16 h; series mostly up to 92.4 µM
Results filed as inconclusive are left out. The source made the active and inactive calls. The call rests on the fitted dose curve; in most records, active means well fitted inhibition curve with a large enough effect in the repeat runs; inconclusive means weak or mixed curves, or effect the other way; inactive means no such curve, though single readings can be large or run the other way.
Measurement Name: Potency

Check out these entries, answers already filled in.
{"columns": ["Compound", "Observed Value"],
 "data": [
  ["COP(=O)(OC)O/C(=C\\Cl)c1cc(Cl)c(Cl)cc1Cl", "38.6 µM (active)"],
  ["C=Cc1cccc(CCl)c1", "inactive"],
  ["CCCCc1ccccc1", "inactive"],
  ["CO/N=C(\\C(=O)OC)c1ccccc1CO/N=C(\\C)c1cccc(C(F)(F)F)c1", "0.77 µM (active)"],
  ["[Cl][Hg][c]1ccccc1", "0.611 µM (active)"]
]}

Potency recorded for this compound, "c1ccc(Nc2ccc(Nc3ccccc3)cc2)cc1" , is inactive

Potency recorded for this compound, "N#Cc1c[nH]cc1-c1cccc2c1OC(F)(F)O2" , is 17.2 µM (active)

Potency recorded for this compound, CC(C)=CC1C(C(=O)OC(C#N)c2cccc(Oc3ccccc3)c2)C1(C)C (stereo unspecified) , is inactive
